Measured polymerase ribozyme fitness (log ratio) accompanies every entry in the list below.
B1: TPR t1 (parent)
chain: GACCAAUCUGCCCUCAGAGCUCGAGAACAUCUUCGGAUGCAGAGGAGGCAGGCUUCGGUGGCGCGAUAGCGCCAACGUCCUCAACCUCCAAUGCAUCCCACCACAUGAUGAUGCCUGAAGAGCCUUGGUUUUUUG

variants of: B1; test: polymerase ribozyme fitness, log enrichment relative to wild type (log ratio); higher = more active; in vitro selection for triplet polymerase activity
VALUE TYPE: polymerase ribozyme fitness (log ratio)

sequence_record="GACCAAUCUGCCCUCAGAGCUCGAGAACAUCUUCGGAUGCAGAGGAGGCAGGCUUCGGUGGCUCGAUAGCGCCAACGUCCUCAAUCUCCAAUGCAUCCCACCACAUGAUGAUGCCUGAAGAGCCUUGGUUUUUUG [G63U C85U]" numeric_readout=-2.96
sequence_record="GACCAAUCUGUCCUCAGAGCUCGAGAACAUCUUCGGAUGCAGAGGAGGCAGGCUUCGGUGGCGCGAUAGCGCCAACGUGCUCAACCUCCAAAGCAUCCCACCACACGAUGAAGCCUGAAGAGCCUUGGUUUUUUG [C11U C79G U92A U106C U112A]" numeric_readout=-5.83
sequence_record="GACCAAUCUGCCCUCAGAGCUCGAGAACAUCUUCGGAUGUAGAGGAGGCAGGCUUCGGUGGCGCGAUAGCGCCAACGUCCUCAACCUCCAAUGCAUCCCACCACAUGAAGAUGCCUGAACAGCCUUGGUUUUUUG [C40U U109A G120C]" numeric_readout=-5.74
sequence_record="GACCAAUCUGCCCUCAGAGCUCGAGAACAUUUUCGGAUGCAGAGGAGGCAGGCUUCGGUGGCGCGAUAGCGCCAACGUCCUCAACCUCCAAUGCAUCCCACCACAUGAUGAGGCCUGAAGAGCCUUGGUUUUUUG [C31U U112G]" numeric_readout=-4.94
sequence_record="GGCCAAUCUGCCCUCAGAGCUCGAGAACAUCUUCGGAUGCAGAGGAGGCAGGCUUCGGUGGCGCGAUAGCGCCAACGUCCUCAACCUCCAAUGCAUCCCACCACAUGAUGAUACCUGAAGAGCCUUGGUUUUUUG [A2G G113A]" numeric_readout=-1.6
sequence_record="GACCAAUCUGCCCUCAGAGCUCGAGAACAUCUUCGGAUGCAGAGAAGGCAGGCUUCGGUGGCGCGAUAGCGUCAACGUCCUCAACCUCGACUGCAUCCCACCACAUGAUGAUGCCUGAAGAGCCUUGGUUUUUUG [G45A C72U C89G A91C]" numeric_readout=-1.81
sequence_record="GACCAAUCUGCACUCAGAGCUCGGGAACAUCUUCGGAUGCCGCGGGGGCAGGGUUCGGUGGCGCGAUAGCGCCAACGUCCUCAACCUCCAAUGCAUCCCACCACAUGAUGAUGCCUGAAGAGCCUUGGUUUUUUG [C12A A24G A41C A43C A46G C53G]" numeric_readout=-4.67
sequence_record="GACCAAUCUGGCCUCAGAGCUCGAGAACAUCUUCGGAUGCAGAGGAGGCAGGCUUCGGUGGCGCGAUAGCGCCAACGUCCUCAACCUCCAAUGCAUCCCACCACAUGAUGAUGCCUGAAGAGCCUCGGUUUUUUG [C11G U126C]" numeric_readout=-0.774
sequence_record="GACCAAUCUGCCCUCAGAGCUCGAGAACAUCUUCGGAUGCAGAGGAGGCAGGCUUCGGUCGCGCGAUAGCGCCAACGUCCUCAACCUCCAAUGCAUCCCACCACAUGAUGAUGCCUGAAGAGCCUUAGUUUUUUG [G60C G127A]" numeric_readout=-1.59
sequence_record="GACCAAUGUGCCCUUAGAGCUCGAGAACAUCUUCGGAUGCAGAGGAGGCAGGCGUCGGUGGCGCGAUAGCGCCAACGUCCUCAACCUCCAAUGCAUCCCACCACAUGAUGAUGCCUCAAGAGCCUUGGUUUUUUG [C8G C15U U54G G117C]" numeric_readout=0.947
sequence_record="GACCAAUCUGCCCGCAGAGCUCGAGAACAUCUUCGGAUGCAGAGGUGGCAGGCUUCGGUGGCGCGAUAGCGCCGACGUCCUCAACCUCCAAUGCAUCCCAACACAUGAUGAUGCCUGAAGAGCCUUGGUUUUUUG [U14G A46U A74G C101A]" numeric_readout=-3.18
sequence_record="GACCAAAAUGCCUUCAGAGCUCGAGAACAUCUUCGGAUGCAGAGGAGGCAGGCUUUGGUGACGCGAUAGCGCCAACGUUCUCAACCUCCAAUGCAUCCCACCACAUGAUGAUGCCUGAAAAGCCUUGGUUUUUUG [U7A C8A C13U C56U G61A C79U G120A]" numeric_readout=-4.91
sequence_record="GACCAAUCUGCCCUCAGAGCUCGAGAACAUCUUCGGAUGCAGAGGAGGCAGGCUUCGGUGGCGCGAUAGCGACAACGUCCUAAACCUCCAAUGCAGCCCUCCACAUGAUGAUGCAUGAAGAGCCUUGGUUUUUUG [C72A C82A U96G A100U C115A]" numeric_readout=-3.23
sequence_record="GACCAAUCUGCCCUCAGAGCUCGAGAACAUCUUCGGAUGCAGAGGAUGCAGGCUUCGGUGGCGCGAUAGCGCCAACGUCCUCAACCUCCAAUGCAUCCCACCAAAUGAUGAUGCCUGAAGAGCCUUGGUUUUGUG [G47U C104A U133G]" numeric_readout=-4.19
sequence_record="GACCCAUCUGCCCUCAGAGCUCGAGAACAUCUUCGGUUGCAGAGGAGGCAGGCUUCGGUGGCGCGAUAACGCCAACGUCCUCAACCUCCAAUGCAUCCCACCACAUGAUGAUGCCUGAAGAGACUUGAUUUUUUG [A5C A37U G69A C123A G128A]" numeric_readout=-4.31
sequence_record="GACCAAUCUGCCCUCAGAGCUCGAGAACAUCUUCGGAUGCAGAGGAGGCAGGCUUCGGUGGCGUGAUAGCGCCAACGUCCUCAACAUCCAAUGCAUCCCACCACAUGAUGAUGCCUGAAGAGCCUUGGAUUUUUG [C64U C86A U129A]" numeric_readout=-1.99
sequence_record="GACCAAUCUGCCCUCAGCUCUCGAGAACAUCUUCGGAUGCAGAGGAGGCAGGCUUCGGUGGCGCGAUAGCGCCAACGUCCUCAACCUCCAAUGCAUCCCACCACAUGAUGAUGCCUGAAGAGCCUUGGUUUUUUG [A18C G19U]" numeric_readout=-5.8
sequence_record="GACCAAUCUGCCCUCAGAGCUCGAGAACAUCUUAGGAUGCAGAGGAGGCAGGCUUCGGUGGCGCGAUAGCGCCAACGUCCUCAACCUCCAAUGCAUCCCACCACAUGAUGAAGCCUGAAGAGCCUUGGUUUUUUG [C34A U112A]" numeric_readout=-1.81
